Just for reference, patent US20240343803A1 is where these values come from.

- measured_on: T1, human TIGIT ECD-hFc (fusion protein of extracellular domain of human TIGIT and human IgG1 Fc fragment) (human)
- T1 construct: entry includes the signal peptide, limits not readable here
- assay: cell ELISA, competition: hTIGIT ECD-hFc to CHO-K1 CD155
Below is a list of entries, each paired with its recorded IC50 value.

[
  {
    "binder": "TIGIT-F2-005 (antibody, V domains shown, mouse hybridoma antibody; variable domains as printed for TIGIT-CHI-005; tie rests on the number 005 only; also called mouse antibody TIGIT-005) VH: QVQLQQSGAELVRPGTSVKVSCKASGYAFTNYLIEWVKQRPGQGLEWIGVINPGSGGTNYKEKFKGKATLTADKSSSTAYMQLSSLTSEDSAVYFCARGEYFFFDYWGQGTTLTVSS VL: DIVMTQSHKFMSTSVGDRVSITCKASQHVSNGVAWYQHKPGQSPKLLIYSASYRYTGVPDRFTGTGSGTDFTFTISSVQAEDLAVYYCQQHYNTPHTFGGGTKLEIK",
    "measurement_unit": "nM",
    "IC50": 0.133
  },
  {
    "binder": "TIGIT-F2-006 (antibody, V domains shown, mouse hybridoma antibody; variable domains as printed for TIGIT-CHI-006; tie rests on the number 006 only; also called mouse antibody TIGIT-006) VH: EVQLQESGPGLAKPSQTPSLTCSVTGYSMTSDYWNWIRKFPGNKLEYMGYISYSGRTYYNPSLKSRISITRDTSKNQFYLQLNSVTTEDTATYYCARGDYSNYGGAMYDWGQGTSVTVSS VL: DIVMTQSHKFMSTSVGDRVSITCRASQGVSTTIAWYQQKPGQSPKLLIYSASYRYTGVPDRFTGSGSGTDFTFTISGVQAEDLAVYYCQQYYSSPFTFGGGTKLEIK",
    "measurement_unit": "nM",
    "IC50": 0.15
  },
  {
    "binder": "TIGIT-F5-070 (antibody, V domains shown, mouse hybridoma antibody; variable domains as printed for TIGIT-CHI-070; tie rests on the number 070 only; also called mouse antibody TIGIT-070) VH: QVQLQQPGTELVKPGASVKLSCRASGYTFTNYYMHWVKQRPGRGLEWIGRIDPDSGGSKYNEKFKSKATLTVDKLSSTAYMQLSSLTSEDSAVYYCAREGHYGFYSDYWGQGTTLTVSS VL: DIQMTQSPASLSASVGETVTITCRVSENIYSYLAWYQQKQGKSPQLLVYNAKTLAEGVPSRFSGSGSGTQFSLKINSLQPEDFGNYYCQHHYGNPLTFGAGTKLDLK",
    "measurement_unit": "nM",
    "IC50": 0.136
  },
  {
    "binder": "TIGIT-F2-002 (antibody, V domains shown, mouse hybridoma antibody; variable domains are those printed for the chimeric TIGIT-CHI-002 built from the mouse antibody; tie rests on the number 002 only; also called mouse antibody TIGIT-002) VH: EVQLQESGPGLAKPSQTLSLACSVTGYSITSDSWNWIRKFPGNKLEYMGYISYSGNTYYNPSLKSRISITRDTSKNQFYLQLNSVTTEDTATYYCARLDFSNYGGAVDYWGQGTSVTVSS VL: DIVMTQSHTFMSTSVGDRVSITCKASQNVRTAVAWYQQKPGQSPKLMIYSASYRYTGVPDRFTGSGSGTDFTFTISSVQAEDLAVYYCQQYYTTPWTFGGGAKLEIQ",
    "measurement_unit": "nM",
    "IC50": 0.141
  }
]
